B1: MFF (parent)
chain: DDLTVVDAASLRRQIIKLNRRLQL

Variants of: B1
Test: protein stability index of a GFP-peptide fusion (GPS, HEK-293T) (PSI 1-6); higher = more stable;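 note: lentivirally expressed fusions sorted by FACS into six bins by GFP to DsRed ratio, PSI derived from sequencing read proportions per bin multiplied by bin number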
Conditions: c terminus: a fixed tail appended
Reported property: protein stability index
Keep the answer to the number alone.

Worked examples, 3 variants total:
{"Mutation descriptor": "Q23G", "protein stability index": 2.5}
{"Mutation descriptor": "I16C", "protein stability index": 1.69}
{"Mutation descriptor": "L24Q", "protein stability index": 2.89}

Prompt line: Supply measured protein stability index of "L3H" in your reply.
Response line: 2.73

Prompt line: Supply measured protein stability index of "R21D" in your reply.
Response line: 1.73

Prompt line: Supply measured protein stability index of "S10R" in your reply.
Response line: 2.83

Prompt line: Supply measured protein stability index of "D7C" in your reply.
Response line: 1.4

Prompt line: Supply measured protein stability index of "Q23S" in your reply.
Response line: 2.63

Prompt line: Supply measured protein stability index of "D2I" in your reply.
Response line: 1.85
